# System: SF-539
# assay explanation: NCI tumour cell line growth inhibition, 48 h
Calls of active or inactive are those of the source. No stated cut-off is given here; in the data, active = GI50 up to about 1.1 µM and inactive = higher. Square brackets hold non-standard residues; d marks the D form. Peptide text beside a SMILES is read from it. pGlu = O=C1CC[C@@H](C(=O)O)N1; Thz = O=C(O)[C@@H]1CSCN1
This listing pairs molecules with measured GI50.

Here's what some known entries look like.
molecule="O=C1CC[C@@H](C(=O)N2CSC[C@H]2C(=O)O)N1 [PIDOTIMOD] ([pGlu]-[Thz]-OH)" recorded_result="> 100 µM (inactive)"
molecule=Cc1cc2c(=O)cc(-c3ccc(C(=O)O)cc3)oc2c(C(=O)O)c1C recorded_result="> 100 µM (inactive)"
molecule=COc1cc(/C=C/c2ccc(Br)cc2)cc(OC)c1OC recorded_result="11.4 µM (inactive)"
molecule="CC(C)C1(NC(=O)C2CC3c4cccc5[nH]cc(c45)CC3N(C)C2)OC2(O)C3CCCN3C(=O)C(Cc3ccccc3)N2C1=O (stereo not given)" recorded_result="15.4 µM (inactive)"

GI50 measured on C=C[C@H]1C=Cc2c(OC)cccc2[C@@H]1COP1(=S)NC(C)C(c2ccccc2)O1 (stereo not given in full) = > 100 µM (inactive)

====

# Tested on: 786-0
# assay explanation: NCI tumour cell line growth inhibition, 48 h
The source made the active and inactive calls. Cut-off read from the data, not from the text of the source: active = GI50 up to about 1.1 µM and inactive = higher.
endpoint label: GI50

In the examples that follow, each entry is paired with its recorded GI50.
compound=Clc1ccc(CCNCCNC2(c3cc4ccccc4s3)CCCCC2)cc1Cl recorded_result="1.95 µM (inactive)"
compound=CCn1c(=O)c2cn[nH]c2n(C)c1=O recorded_result="> 100 µM (inactive)"
compound="O=C1CCC2(c3ccccc3)Nc3ccccc3N12 (configuration not stated)" recorded_result="> 100 µM (inactive)"

The reported GI50 of the compound C[C@]12CCC(=O)C=C1CC[C@@H]1C2CC[C@]2(C)Nc3c(cnn3-c3ccccc3)CC12 (some centres not stated) was > 100 µM (inactive)

Recorded GI50 (compound CCN(CC)CCNc1ccc2nnn3c4ccc(O)cc4c(=O)c1c23 ): 1.24 µM (inactive)

For record CN(C)c1nc2oc(-c3ccccc3)c(-c3ccccc3)c2c2nnnn12 the listed GI50 is > 100 µM (inactive)

// GI50 value for O=S(=O)(O)c1ccc2c(/N=N/c3cccc4ccccc34)c(O)ccc2c1 : > 100 µM (inactive)

Kindly note the recorded GI50 for O=C1c2ccccc2NC(=O)C2C1C(c1ccccc1)CC2(O)c1ccccc1 (configuration not stated) , which is 69.5 µM (inactive)

response.value for CCN(CC)Cc1cc(Nc2c3ccccc3nc3c4ccccc4n(C)c23)ccc1O (field: GI50) = 3.76 µM (inactive)

Looking up CCC(CS(=O)(=O)O)[N+](=O)[O-] (configuration not stated) , I found its GI50 recorded as > 100 µM (inactive)

What the record says about O=C(O)C1CC(c2ccccc2)=NN1c1ccccc1 (configuration not stated) : GI50 is 56.9 µM (inactive)

Lab note: measured GI50 of COc1ccc(/C=C(/C#N)C(N)=O)cc1OC was > 100 µM (inactive)

====

# System: NCI/ADR-RES
# assay explanation: NCI tumour cell line growth inhibition, 48 h
Active and inactive are the calls of the source. Cut-off read from the data, not from the text of the source: active = GI50 up to about 1.1 µM and inactive = higher.
endpoint label: GI50

Please review the following examples before continuing.
molecule=CC(=O)NNc1nc(C)c(C(/C=C/c2ccc([N+](=O)[O-])cc2)=N/N)s1 recorded_result="> 100 µM (inactive)"
molecule=CCN(CC)CCNc1ccc2nnn3c4ccc(O)cc4c(=O)c1c23 recorded_result="1.47 µM (inactive)"

Now look at this entry.
Entry CC(CCc1ccccc1)NCC(O)n1c(/N=N/N(C)C)nc2c1c(=O)n(C)c(=O)n2C (stereo not drawn) , GI50 reported as > 100 µM (inactive)

====

# Tested on: HCC 2998
# assay explanation: NCI tumour cell line growth inhibition, 48 h
The source made the active and inactive calls. Cut-off read from the data, not from the text of the source: active = GI50 up to about 1.1 µM and inactive = higher.
The reply should name one outcome from YES for active, NO for inactive

Reference set, count: 2
molecule=CC(C)C(=O)Oc1cc2c(=O)oc3c(OC(=O)C(C)C)c(OC(=O)C(C)C)cc4c(=O)oc(c1OC(=O)C(C)C)c2c34 system_tested="HCC 2998" class=NO
molecule=COc1cc2c(c(OC)c1OC)-c1ccc(SC)c(=O)cc1[C@@H](NC(=O)c1ccc(Cl)cc1)CC2 system_tested="HCC 2998" class=YES

Ask: What did the test return for CCCCC/N=C/c1c(O)c(O)c(C(C)C)c2cc(C)c(-c3c(C)cc4c(C(C)C)c(O)c(O)c(/C=N/CCCCC)c4c3O)c(O)c12 ?
Result: NO

Ask: Would you mind telling me which call this test gave CN1C[C@@H]2CC(=O)CC[C@@H]2C[C@H]1C#N ?
Result: NO

Ask: What was the test verdict on CC(=O)N1c2ccccc2C23CCN(C)CC4C(C)OCC(C4CC2=O)C13 (configuration not stated) ?
Result: NO

Ask: Record lookup: outcome of this test for Cc1nsc2cc(Cl)n(C)c(=O)c12 ?
Result: YES

Ask: What is the recorded call for this molecule in the test? O=C(O)c1cc(C(=O)O)nc(C(=O)O)c1
Result: NO

====

# Tested on: RXF 393
# assay explanation: NCI tumour cell line growth inhibition, 48 h
Activity calls are given as the source filed them. No stated cut-off is given here; in the data, active = GI50 up to about 1.1 µM and inactive = higher.
endpoint label: GI50

Field: example entries. Status: answers known.
molecule="CC12CCC(=O)N1c1cc([N+](=O)[O-])ccc1N2 (centres undefined)" recorded_result="> 100 µM (inactive)"
molecule="CSc1nc(SC)c2c(C)cn(C3OC(C)C(O)C(O)C3O)c2n1 (centres undefined)" recorded_result="> 100 µM (inactive)"
molecule=CN(C)c1ccc(C2=C([O-])c3cc(-[n+]4ccccc4)ccc3C2=O)cc1 recorded_result="> 100 µM (inactive)"
molecule=CO/C(=N\N=C\c1ccccc1F)c1ccncc1 recorded_result="> 10 µM (inactive)"
molecule="CC1=CC[C@H](C(C)C)C(C(O)[C@@H](C)O[Si](c2ccccc2)(c2ccccc2)C(C)(C)C)C1=O (some centres undefined)" recorded_result="13.5 µM (inactive)"
molecule="COC1=CC(=O)C2C(C1=O)[C@@H]1c3ccccc3C[C@H]21 (some centres undefined)" recorded_result="> 100 µM (inactive)"

Entry COC(=O)C1=C(C(=O)OC)N(c2ccncc2)C(c2ccco2)=CC1c1ccccc1[N+](=O)[O-] (centres undefined) — recorded GI50 = 4.65 µM (inactive)

Briefly, GI50 measured for CN1N=CSC12C(=O)N(c1ccccc1)C(=O)N2c1ccccc1 (centres undefined) : > 100 µM (inactive)

Memo: COc1ccc2cc1Oc1ccc(cc1)C[C@H]1c3cc(c(OC)cc3CCN1C)Oc1c(OC)c(OC)cc3c1[C@H](C2)N(C)CC3 , reported GI50: 5.08 µM (inactive)

====

# Tested on: OVCAR-8
# assay explanation: NCI tumour cell line growth inhibition, 48 h
Calls of active or inactive are those of the source. No stated cut-off is given here; in the data, active = GI50 up to about 1.1 µM and inactive = higher.
Your answer must be one of the following: 1 (active), 0 (inactive)

molecule=CCOC(=O)c1sc2nc1CSc1sc(=S)sc1SCc1nc(sc1C(=O)OCC)-c1nc(c(C(=O)OCC)s1)CSc1sc(=S)sc1SCc1nc-2sc1C(=O)OCC class=0
molecule="O=C1/C(=C\\c2ccc([N+](=O)[O-])o2)SC2NC(COc3ccc(Cl)cc3)=NN12 (stereo not given)" class=0
molecule="O=C1c2ccccc2N(O)C1(c1ccccc1)C1CCCC=C1N1CCOCC1 (stereo not given)" class=0
molecule=CCN(CC)c1cccc2c1/C(=N/O)CCCC2 class=0

Ask: Just curious, what result did CCOC(=O)c1cc(Br)c(-c2cc(C)no2)[nH]1 get here?
Result: 0

Ask: Each molecule tested received a call. Report the one for c1ccc(C(=NNc2nc3ccccc3o2)c2ccccn2)nc1 .
Result: 1

Ask: What call does the record list for COC(=O)[C@@]12C=CC(=O)[C@H]3C[C@@H](C(C(C)C)C1)[C@]32OC (stereo not given in full) ?
Result: 0

Ask: Outcome? CC[C@H](O)[C@H](C)C=C1SCCCS1
Result: 0

Ask: # outcome recorded in this test, key = CCN(CC)CCNc1ccc2nnn3c4ccc(O)cc4c(=O)c1c23
Result: 0

====

# Tested on: MOLT-4
# assay explanation: NCI tumour cell line growth inhibition, 48 h
Active and inactive are the calls of the source. No stated cut-off is given here; in the data, active = GI50 up to about 1.1 µM and inactive = higher.
Hello, when you answer, please use one of the following outcomes: YES for active, NO for inactive

Take a look at these entries with their results.
compound=CC(C)(C)c1cc(OCc2nnc3sc(Cc4ccccc4)nn23)c(Cl)cc1OCc1nnc2sc(Cc3ccccc3)nn12 class=NO
compound=CC1=C[C@H]([C@H]2C=C(C)C(C(N)=O)=CN2Cc2c(Cl)cccc2Cl)N(Cc2c(Cl)cccc2Cl)C=C1C(N)=O class=NO
compound=O=c1[nH]ccc(CNC23CC4CC(CC(C4)C2)C3)c1O class=NO

Ask: Just curious, what result did Cc1cccc(/C=N/NC(=S)NCCc2ccccn2)n1 get here?
Result: NO

Ask: Hello, I am checking results. What call was entered for CN(C(=O)Nc1ccc(Cl)c(Cl)c1)C1CCCC[C@@H]1N1CCCC1 (some centres not stated) ?
Result: NO

Ask: Given O=C1C=CC2(O[C@H](C3CCCCC3)[C@@H](C3CCCCC3)O2)C(SC(=O)c2ccccc2)C1 (some centres not stated) , state the outcome it received in this test.
Result: YES

Ask: GET /call?item= CC(C)(C)c1cc2c3c(c1)c(=O)c1cccc4c(O)c5cccc(c2=O)c5c-3c41 returns the recorded outcome of this test.
Result: NO

Ask: I'd appreciate the recorded outcome for FC(F)(F)c1nc(-c2ccccc2)oc1Sc1nnc(Sc2oc(-c3ccccc3)nc2C(F)(F)F)s1 from this test.
Result: NO

Ask: Kindly provide the recorded test outcome for the following compound: CCOC(=O)CO/N=C\C1=CC(=O)C2CC1C2(C)C (configuration not stated)
Result: NO

Ask: Query: recorded result category for Cc1nsc2cc(Cl)n(C)c(=O)c12 in this test
Result: NO

Ask: Hi, sorry to bother you, what did the test record for O=C1/C(=C\c2ccc([N+](=O)[O-])o2)SC2NC(COc3ccc(Cl)cc3)=NN12 (configuration not stated) ?
Result: NO

Ask: Hi, sorry to bother you, what did the test record for Clc1ccc(C2NN=C3c4ccccc4OCC32)cc1 (configuration not stated) ?
Result: NO

Data credit: ChEMBL document CHEMBL1201862
